Attribution: patent US9416123B2

TARGET_OR_SYSTEM: VEGFR-2 (Homo sapiens (Human), UniProt P35968)
Sequence (P35968 20-1356): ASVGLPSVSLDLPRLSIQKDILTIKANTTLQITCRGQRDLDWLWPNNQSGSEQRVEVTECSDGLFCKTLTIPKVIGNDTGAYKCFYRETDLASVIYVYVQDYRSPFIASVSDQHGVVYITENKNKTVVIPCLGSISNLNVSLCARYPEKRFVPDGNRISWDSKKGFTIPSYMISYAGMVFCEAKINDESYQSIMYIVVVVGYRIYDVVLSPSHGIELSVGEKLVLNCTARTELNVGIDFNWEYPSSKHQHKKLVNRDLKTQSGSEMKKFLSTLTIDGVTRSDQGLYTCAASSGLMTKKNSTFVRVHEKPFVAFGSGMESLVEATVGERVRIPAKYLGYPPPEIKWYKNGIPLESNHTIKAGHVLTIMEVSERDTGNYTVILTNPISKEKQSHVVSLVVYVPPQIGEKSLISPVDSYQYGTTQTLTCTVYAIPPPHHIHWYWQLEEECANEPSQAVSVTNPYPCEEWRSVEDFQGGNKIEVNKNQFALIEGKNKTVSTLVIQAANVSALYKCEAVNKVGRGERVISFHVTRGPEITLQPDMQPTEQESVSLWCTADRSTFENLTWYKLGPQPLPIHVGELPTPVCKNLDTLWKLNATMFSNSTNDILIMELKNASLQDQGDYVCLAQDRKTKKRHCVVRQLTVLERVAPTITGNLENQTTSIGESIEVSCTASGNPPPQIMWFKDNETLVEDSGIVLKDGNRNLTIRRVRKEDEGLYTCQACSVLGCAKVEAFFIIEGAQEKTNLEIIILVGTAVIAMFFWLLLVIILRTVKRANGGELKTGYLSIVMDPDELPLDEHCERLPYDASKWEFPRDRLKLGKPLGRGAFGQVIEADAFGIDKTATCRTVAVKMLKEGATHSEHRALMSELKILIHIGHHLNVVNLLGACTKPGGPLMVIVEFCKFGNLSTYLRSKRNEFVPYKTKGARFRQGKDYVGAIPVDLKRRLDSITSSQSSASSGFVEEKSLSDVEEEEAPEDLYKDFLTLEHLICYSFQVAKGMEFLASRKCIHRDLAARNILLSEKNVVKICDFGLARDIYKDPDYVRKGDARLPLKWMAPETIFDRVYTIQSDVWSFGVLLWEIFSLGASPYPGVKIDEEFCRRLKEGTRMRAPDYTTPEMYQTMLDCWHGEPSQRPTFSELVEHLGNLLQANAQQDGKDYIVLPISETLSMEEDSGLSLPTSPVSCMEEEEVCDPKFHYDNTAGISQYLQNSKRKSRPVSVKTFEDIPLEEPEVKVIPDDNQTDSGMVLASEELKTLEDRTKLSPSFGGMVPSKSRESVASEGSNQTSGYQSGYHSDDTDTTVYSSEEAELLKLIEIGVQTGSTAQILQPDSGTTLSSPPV
EXPERIMENTAL_READOUT: pIC50
Units for pIC50: none; it is -log10 of a concentration expressed in mol/L.

Lab note: VEGFR-2 (Homo sapiens (Human), UniProt P35968) assay, enter pIC50 for Nc1cc(-c2ccncc2)nn1-c1c(Cl)cc(Cl)cc1Cl here
4.06
